Target: human androgen receptor (Homo sapiens)
Sequence (P10275 whole entry): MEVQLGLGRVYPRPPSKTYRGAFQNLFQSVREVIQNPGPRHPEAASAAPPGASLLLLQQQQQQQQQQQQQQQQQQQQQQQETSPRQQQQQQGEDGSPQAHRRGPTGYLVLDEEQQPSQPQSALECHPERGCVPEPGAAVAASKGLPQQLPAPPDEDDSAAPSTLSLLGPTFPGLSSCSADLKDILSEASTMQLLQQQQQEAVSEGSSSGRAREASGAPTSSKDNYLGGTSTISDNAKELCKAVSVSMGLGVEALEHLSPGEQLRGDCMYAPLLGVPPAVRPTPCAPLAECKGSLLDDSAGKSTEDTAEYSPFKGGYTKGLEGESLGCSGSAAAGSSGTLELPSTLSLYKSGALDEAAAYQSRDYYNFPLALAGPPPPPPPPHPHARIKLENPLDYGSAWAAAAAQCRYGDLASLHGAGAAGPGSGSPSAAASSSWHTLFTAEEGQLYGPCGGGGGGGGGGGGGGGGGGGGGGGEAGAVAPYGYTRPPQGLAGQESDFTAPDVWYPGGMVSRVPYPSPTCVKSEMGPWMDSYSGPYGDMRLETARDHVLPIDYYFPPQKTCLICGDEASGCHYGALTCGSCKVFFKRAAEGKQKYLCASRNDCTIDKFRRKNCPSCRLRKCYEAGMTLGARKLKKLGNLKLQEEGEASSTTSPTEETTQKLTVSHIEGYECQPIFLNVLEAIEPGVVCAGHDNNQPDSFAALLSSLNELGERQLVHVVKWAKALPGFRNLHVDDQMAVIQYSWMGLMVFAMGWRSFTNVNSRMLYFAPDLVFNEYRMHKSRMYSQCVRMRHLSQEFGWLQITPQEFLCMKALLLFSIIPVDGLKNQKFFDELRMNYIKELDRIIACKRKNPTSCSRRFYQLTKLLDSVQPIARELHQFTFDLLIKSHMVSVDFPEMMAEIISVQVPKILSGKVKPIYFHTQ
Test: Gene reporter assay in AIZ-AR cells, agonist mode (luciferase)
Assay type: cell-based
Conditions: Clone 8, 24 h
The following compounds are shown together with reported Log EC50 values.
Returns: the value as a bare number; no unit string appended.

Worked examples, 3 compounds total:
C[C@]12CCC(=O)C=C1CC[C@@H]1[C@@H]2[C@@H](O)C[C@@]2(C)[C@H]1CC[C@]2(O)C(=O)CO [Cortisol, cortisol]    -6.35
O=c1c(-c2ccc(O)cc2)coc2cc(O)cc(O)c12 [Genistein, genistein]    -6.62
C[C@H]1C[C@@H]2[C@H]([C@@H](O)C[C@@]3(C)[C@H]2CC[C@]3(O)C(=O)CO)[C@@]2(C)C=CC(=O)C=C12 [Methyl-prednisolone, methylprednisolone]    -7.60

Lab note: next compound to report on.
Form field: reported Log EC50 of C[C@]12CCC(=O)C=C1CC[C@@H]1[C@@H]2[C@@H](O)C[C@]2(C=O)[C@@H](C(=O)CO)CC[C@@H]12 [Aldosterone, aldosterone] -6.03

Origin of measurements: paper PMC4374931
